Test system: NCI-H322M lung
Experiment Notes: NCI-60 one-dose screen, 48 h (100 = growth as untreated, 0 = no growth, -100 = all killed)
Cond: 10 µM unless noted
About 83,000 compounds went through this panel and 20% of them were active in at least one assay; those are over-represented in the sample as a whole.
Measured Property: growth (%)
Number only, in %; omit the unit.

Solved entries (count: 5):
Molecule	Assayed Target	Measured Property	Reading
Cc1cc(N2CCN(CC(=O)Nc3ccc4c(ccn4C)c3)CC2)nc(N2CCCCCC2)n1	NCI-H322M lung	growth	92.9
C/C(Cc1ccc(Cl)cc1)=C(\c1ccc(O)cc1)c1ccc(Cl)cc1	NCI-H322M lung	growth	83.3
N#Cc1ccc(O)c(C2=NCC(c3ccccc3)O2)c1 (stereo unspecified)	NCI-H322M lung	growth	55.9
CCCC/C=C/[C@@H]1C[C@H]1CCO	NCI-H322M lung	growth	92.1
O=C(CSC(=S)n1cnnc1)NC(=O)c1ccccc1	NCI-H322M lung	growth	103

Look up growth of "Nc1ncnc2c1c(-c1cccc(Cl)c1)nn2CC(=O)N1CCOCC1" and report it.
102

Please report growth for the following molecule: "COc1ccc(-c2nc3cc(C(=O)NCc4ccccc4)ccc3n2C2CCCCC2)cc1"
81

Fill in growth for record "Cc1[nH]c(C(=O)Nc2ccccc2OC2CCNCC2)c(Cl)c1Cl"
31.3

Please indicate growth recorded for "COc1ccc(NC(=O)c2sc3nc(C)c(C(=O)/C=C/c4ccccc4)cc3c2N)cc1"
13.1

Name the recorded growth of the molecule listed here: "O=C(Nc1ccccc1O)c1ccc(CNC(=O)c2sccc2Nc2ccnc(C(F)(F)F)c2)cc1"
51

For the molecule "c1ccc(-c2oc(-c3ccccc3)c(CN3CCCCC3)c2CN2CCCCC2)cc1" , give its reported growth.
52.9

Source of measurements: PubChem BioAssay (NCI)
